Molecular target: sGC α1/β1 heterodimer (Homo sapiens, UniProt Q02108+Q02153)
Construct: expressed in transfected cells
Sequence (Q02108 1-690): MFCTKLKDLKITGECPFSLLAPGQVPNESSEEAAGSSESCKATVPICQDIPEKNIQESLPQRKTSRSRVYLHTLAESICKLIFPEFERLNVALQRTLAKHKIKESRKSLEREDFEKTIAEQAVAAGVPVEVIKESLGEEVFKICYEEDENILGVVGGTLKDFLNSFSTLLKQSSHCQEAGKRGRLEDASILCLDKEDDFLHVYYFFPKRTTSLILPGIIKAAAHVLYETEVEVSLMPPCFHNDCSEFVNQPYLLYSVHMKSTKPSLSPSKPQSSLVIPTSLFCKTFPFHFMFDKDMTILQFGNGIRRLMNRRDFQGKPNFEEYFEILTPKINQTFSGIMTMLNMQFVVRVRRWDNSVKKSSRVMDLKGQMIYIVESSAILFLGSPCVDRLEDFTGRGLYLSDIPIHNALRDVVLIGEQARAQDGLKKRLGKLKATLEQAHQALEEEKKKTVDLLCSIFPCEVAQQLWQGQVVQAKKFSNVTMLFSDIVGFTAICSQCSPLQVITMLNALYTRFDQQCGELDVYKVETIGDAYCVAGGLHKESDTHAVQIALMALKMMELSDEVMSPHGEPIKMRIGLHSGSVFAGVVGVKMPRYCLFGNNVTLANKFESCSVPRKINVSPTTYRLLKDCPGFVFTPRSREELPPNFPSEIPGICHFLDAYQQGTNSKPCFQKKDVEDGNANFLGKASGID
Sequence (Q02153 1-619): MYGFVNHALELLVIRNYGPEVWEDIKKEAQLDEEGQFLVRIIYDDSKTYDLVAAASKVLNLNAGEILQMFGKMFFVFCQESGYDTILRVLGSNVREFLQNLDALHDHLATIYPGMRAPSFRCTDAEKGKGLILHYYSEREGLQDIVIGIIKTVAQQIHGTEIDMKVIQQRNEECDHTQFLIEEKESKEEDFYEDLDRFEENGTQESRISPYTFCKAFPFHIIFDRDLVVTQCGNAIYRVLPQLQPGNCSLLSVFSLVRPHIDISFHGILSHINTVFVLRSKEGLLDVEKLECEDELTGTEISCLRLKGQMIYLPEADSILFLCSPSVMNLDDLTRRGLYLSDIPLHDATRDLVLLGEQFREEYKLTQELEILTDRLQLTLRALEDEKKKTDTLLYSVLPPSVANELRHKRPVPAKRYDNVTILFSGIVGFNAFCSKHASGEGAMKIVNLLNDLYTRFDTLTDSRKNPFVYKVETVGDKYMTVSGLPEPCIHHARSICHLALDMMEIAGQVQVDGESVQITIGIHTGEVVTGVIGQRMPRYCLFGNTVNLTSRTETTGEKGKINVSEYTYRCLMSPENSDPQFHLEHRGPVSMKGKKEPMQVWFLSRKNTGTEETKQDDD
Assay: Cell-Based sGC Functional Assay (CASA Assay), cGMP generation in CHO-K1/sGC cells;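 also: reference Compound A is a published heme-dependent sGC activator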
Details: maximum cGMP production of Compound A set to 100% activation, read-out: % Act. (percent activation relative to Compound A)
Measured Emax by item
State just the number; it will be interpreted in %.

Cc1ccc(C2(C3CC3)C(=O)Nc3nc(-c4cn5ncnc5c(CCCC(F)(F)F)n4)nc(N)c32)nc1 (racemic) [Example 47B] = 114

Problem: Param item = COc1ccc(C2(C)C(=O)Nc3nc(-c4cn5ncnc5c(CCCC(F)(F)F)n4)nc(O)c32)nc1 (stereo not shown) [Example 148A] ; retrieve measured Emax.
Result: 96

Problem: Param item = Nc1nc(-c2cn3ncnc3c(CCCC(F)(F)F)n2)nc2c1C(c1nnc(C(F)(F)F)o1)(C1CC1)C(=O)N2 (stereo not shown) [Example 106A] ; retrieve measured Emax.
Result: 95

Problem: Param item = CC(F)(F)c1ccc(C2(C)C(=O)Nc3nc(-c4cn5ncnc5c(CCC(F)(F)C(F)(F)F)n4)nc(N)c32)cn1 (racemic) [Example 16B] ; retrieve measured Emax.
Result: 77

Problem: Param item = COc1ccc(C2(C3CC3)C(=O)Nc3nc(-c4cn5ncnc5c(CCCC(F)(F)F)n4)nc(N)c32)nc1 (stereo not shown) [Example 39A] ; retrieve measured Emax.
Result: 96

Problem: Param item = CC1(c2ccc(O)cn2)C(=O)Nc2nc(-c3cn4ncnc4c(CCCC(F)(F)F)n3)nc(N)c21 (stereo not shown) [Example 111A] ; retrieve measured Emax.
Result: 75

Problem: Param item = CCCc1nc(-c2nc(O)c3c(n2)NC(=O)C3(C)c2ccc(Cl)c(F)c2)cn2ncnc12 (stereo not shown) [Example 166B] ; retrieve measured Emax.
Result: 117

Reference source: patent US10925876B2
